target: GST-JAK2(808-1132) (Homo sapiens)
Construct: GST-JAK2(808-1132); purchased Invitrogen (Carlsbad, USA) #4288
Sequence (O60674 808-1132): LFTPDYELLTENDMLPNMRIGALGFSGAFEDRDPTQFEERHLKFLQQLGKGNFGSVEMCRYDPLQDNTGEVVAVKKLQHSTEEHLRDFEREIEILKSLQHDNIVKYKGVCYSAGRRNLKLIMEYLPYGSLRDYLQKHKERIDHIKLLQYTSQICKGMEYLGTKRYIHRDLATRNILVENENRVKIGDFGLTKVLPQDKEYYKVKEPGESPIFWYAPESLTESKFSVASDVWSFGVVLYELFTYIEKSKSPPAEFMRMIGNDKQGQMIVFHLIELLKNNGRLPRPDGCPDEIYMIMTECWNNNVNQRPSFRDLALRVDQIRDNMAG
method description: JAK2 kinase assay (Caliper mobility shift, LabChip 3000)
Type: biochemical
pIC50: −log10 of the molar value.
property name: pIC50

Ask: Fill in: pIC50 of COCc1ccc(Nc2ncc3ccn(-c4ccc(C(=O)N5CCOCC5)cc4)c3n2)cc1 is ___
Reply: 8.41

Ask: Quick check: pIC50 of OCCOc1ccc(Nc2ncc3ccn(-c4cc(F)c(CN5CCOCC5)c(F)c4)c3n2)cn1 ?
Reply: ≥ 8.52

Ask: Request the reported pIC50 associated with Cc1ccc(Nc2ncc3ccn(-c4cc(F)c(CN5CCOCC5)c(F)c4)c3n2)cc1Cn1cnnc1
Reply: ≥ 8.52

Ask: Reported pIC50 for CC(C)S(=O)(=O)Nc1ccc(-n2ccc3cnc(Nc4ccc(N5C[C@@H](C)N[C@@H](C)C5)nc4)nc32)cc1 : what is it?
Reply: 8.19

Ask: What value of pIC50 has been recorded for this entry: CCOc1ccc(Nc2ncc3ccn(-c4ccc(CN5CCOCC5)c(Cl)c4)c3n2)cc1OCC
Reply: 8.28

Ask: Form field: reported pIC50 of C[C@@H]1CN(Cc2c(F)cc(-n3ccc4cnc(Nc5ccc(N6CCN(C)CC6)nc5)nc43)cc2F)C[C@H](C)O1
Reply: 8.02

Ask: Please look up its pIC50: CN1CCN(c2cc(Nc3ncc4ccn(-c5cc(F)c(CN6CCOCC6)c(F)c5)c4n3)ccn2)CC1=O
Reply: ≥ 8.52

Ask: Bench note: what pIC50 did CS(=O)(=O)c1ccc(-n2ccc3cnc(Nc4ccc(C(=O)NCCN5CCOCC5)cc4)nc32)cc1 show?
Reply: > 8.52

Ask: Find the recorded pIC50 belonging to CN1CCN(C(=O)Cc2ccc(-n3ccc4cnc(Nc5ccc(C(F)(F)F)cc5)nc43)cc2)CC1 and report it.
Reply: 8.15

Ask: Returns the measured pIC50 for the input compound. Input: Fc1cc(-n2ccc3cnc(Nc4ccc([C@H]5CNCCN5)cc4)nc32)cc(F)c1CN1CCOCC1
Reply: ≥ 8.52

Ask: Item under review: OC1CCN(Cc2ccc(Nc3ncc4ccn(-c5cc(F)c(CN6CCOCC6)c(F)c5)c4n3)cn2)C1 (racemic) . Reported pIC50?
Reply: ≥ 8.52

Ask: For CCOc1ccc(Nc2ncc3ccn(-c4ccc(S(C)(=O)=O)cc4)c3n2)cc1OCC , what is its reported pIC50?
Reply: > 8.52

Ask: Returns the measured pIC50 for the input compound. Input: CC(C)Oc1ccc(Nc2ncc3ccn(-c4ccc(CC(=O)N5CCN(C)CC5)cc4)c3n2)cc1
Reply: > 8.52

Ask: Name the reported pIC50 value associated with the compound N#Cc1ccc(Nc2ncc3ccn(-c4cc(F)c(CN5CCS(=O)(=O)CC5)c(F)c4)c3n2)cc1
Reply: > 8.52

Ask: Which pIC50 value belongs to OC1CCN(Cc2cc(Nc3ncc4ccn(-c5cc(F)c(CN6CCOCC6)c(F)c5)c4n3)ccn2)C1 (racemic) ?
Reply: ≥ 8.52

Ask: Fill in the blank: the reported pIC50 of O=C1CN(c2ncc(Nc3ncc4ccn(-c5cc(F)c(CN6CCOCC6)c(F)c5)c4n3)cc2Cl)CCN1 is ____.
Reply: ≥ 8.52

Ask: Quick check: pIC50 of Cc1ccc(Nc2ncc3ccn(-c4cc(F)c(CN5CCOCC5)c(F)c4)c3n2)cc1C ?
Reply: > 7.77

Ask: Looking for the measured pIC50 of CN1CCN(c2cccc(Nc3ncc4ccn(-c5ccc(S(C)(=O)=O)cc5)c4n3)c2)CC1 , can you help?
Reply: > 8.52

Ask: Reported pIC50, compound CN1CCN(c2ncc(Nc3ncc4ccn(-c5ccc(S(C)(=O)=O)cc5)c4n3)cn2)CC1 : ____
Reply: 6.92

Ask: pIC50 for CS(=O)(=O)c1ccc(-n2ccc3cnc(Nc4ccccc4)nc32)cc1 ?
Reply: 8.16

Ask: For the compound shown here, Cc1ccc(Nc2ncc3ccn(-c4cc(F)c(CN5CCOCC5)c(F)c4)c3n2)cc1Cn1cc(CCO)cn1 , give the reported pIC50.
Reply: 8.34

Ask: Form field: reported pIC50 of Cc1ccc(Nc2ncc3ccn(-c4cc(F)c(CN5CCOCC5)c(F)c4)c3n2)cc1CN1CCNC(=O)C1
Reply: ≥ 8.52

Ask: Need pIC50, item COc1ccc(Nc2ncc3ccn(-c4cc(F)c(C(=O)N5CCOCC5)c(F)c4)c3n2)cn1
Reply: 7.96

Ask: Given the entry CCN1CCN(C(=O)Cc2cccc(Nc3ncc4ccn(-c5cc(F)c(CN6CCOCC6)c(F)c5)c4n3)c2)CC1 , report its measured pIC50.
Reply: > 8.52

Ask: Give its pIC50 value. Item: COCc1ccc(Nc2ncc3ccn(-c4ccc(S(C)(=O)=O)cc4)c3n2)cc1
Reply: 8.36

Ask: Recorded pIC50 for Cc1cc(Nc2ncc3ccn(-c4cc(F)c(CN5CCOCC5)c(F)c4)c3n2)cnc1N1CCNC(C)(C)C1 , please?
Reply: ≥ 8.52

Ask: Looking for the measured pIC50 of COc1ccc(Nc2ncc3ccn(-c4ccc(S(C)(=O)=O)cc4)c3n2)cc1OCCN(C)C , can you help?
Reply: > 8.52

Ask: # pIC50 lookup, item Fc1cc(-n2ccc3cnc(Nc4ccc([C@H]5COCCN5)cc4)nc32)cc(F)c1CN1CCOCC1
Reply: ≥ 8.52

Ask: Could you share which pIC50 value was measured for CC(C)Oc1ccc(Nc2ncc3ccn(-c4ccc(C(=O)N5CCN(C)CC5)c(F)c4)c3n2)cc1 ?
Reply: 8.42

Ask: I'd like to know its pIC50. The compound in question is CS(=O)(=O)c1ccc(-n2ccc3cnc(Nc4cccc(Cn5ccnc5)c4)nc32)cc1
Reply: > 8.52

Ask: Which value of pIC50 has been reported for CS(=O)(=O)c1ccc(-n2ccc3cnc(Nc4cccc(OCCN5CCOCC5)c4)nc32)cc1 in the records?
Reply: 8.31
